system: CB1 (mutant) (Homo sapiens, UniProt P21554)
Sequence (P21554 1-417, change not shown): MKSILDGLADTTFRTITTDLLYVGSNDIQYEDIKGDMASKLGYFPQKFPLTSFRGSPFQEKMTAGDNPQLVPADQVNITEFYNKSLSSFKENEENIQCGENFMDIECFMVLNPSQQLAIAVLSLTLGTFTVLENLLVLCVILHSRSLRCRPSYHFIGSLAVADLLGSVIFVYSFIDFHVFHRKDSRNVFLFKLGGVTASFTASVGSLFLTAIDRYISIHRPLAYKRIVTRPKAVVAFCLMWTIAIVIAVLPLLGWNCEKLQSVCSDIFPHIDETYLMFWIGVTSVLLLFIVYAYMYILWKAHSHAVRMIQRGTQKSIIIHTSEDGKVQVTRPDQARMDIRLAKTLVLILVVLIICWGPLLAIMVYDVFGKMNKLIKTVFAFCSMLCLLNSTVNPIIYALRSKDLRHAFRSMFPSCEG
assayName: R-SAT functional receptor assay, CB1 (mutant, truncated after amino acid 417)
Assay type: cell-based
assayContext: Appendix A; R-SAT CB1; receptor form not stated; relative to SR141716 (100%); read-out: % Inhibition
measuredAttribute: Emax (%)
Provide only the numeric value, understood in %.

Worked examples, 4 molecules total:
>>> datavalue("CCOCCNC(=O)c1ccc2c(c1)N=C(N1CCCCC1)c1ccccc1S2")
103
>>> datavalue("O=C(NCc1ccco1)c1ccc2c(c1)N=C(c1ccccc1F)c1ccccc1S2 [drawing 859]")
100
>>> datavalue("O=C(NCCc1ccncc1)c1ccc2c(c1)N=C(c1ccccn1)c1ccccc1S2")
51
>>> datavalue("O=C(NCCc1ccc(Cl)cc1)c1ccc2c(c1)N=C(N1CCCCC1)c1ccccc1S2 [drawing 775]")
113

Now look at this entry.
For the molecule CCCCNC(=O)c1ccc2c(c1)N=C(c1ccc(Cl)s1)c1ccc(F)cc1S2 [drawing 1010] , report Emax.
101
